assay: Selectivity ratio of IC50 for rat L6 cells to IC50 for […]; type: ADME, cell-based; conditions: read-out: Ratio IC50
We begin with a simple list: items and their reported selectivity ratio.
Number, no unit, nothing else.

Reference set (4 entries):
In: Report selectivity ratio for Clc1ccc2c(Nc3ccc4sc(NCCN5CCOCC5)nc4c3)ccnc2c1 please.
Out: 117

In: Next up: Clc1ccc2c(Nc3ccc(NCCN4CCCC4)nc3)ccnc2c1
Out: 885

In: Then what about the compound CC(C)(C)Nc1nc2cc(Nc3ccnc4cc(Cl)ccc34)ccc2s1 ?
Out: 3.56

In: Another compound to check: Clc1ccc2c(Nc3ccc4oc(NCCN5CCCC5)nc4c3)ccnc2c1
Out: 1090

Next:
In: // selectivity ratio lookup, key: CCNc1nc2cc(Nc3ccnc4cc(Cl)ccc34)ccc2o1
Out: 33.3

----------
Quick reference for selectivity ratio among some molecules
assay: Selectivity ratio of IC50 for rat L6 cells to IC50 for […]; format: ADME, cell-based; details: read-out: Ratio IC50
// no unit string in output, number only

For orientation, consider the following solved cases.
In: I would be grateful if you could share the reported selectivity ratio for Clc1ccc2c(Nc3ccc(NCCN4CCOCC4)nc3)ccnc2c1 .
Out: 1160

In: // same read-out, input: CCN(CC)CCNc1nc2cc(Nc3ccnc4cc(Cl)ccc34)ccc2[nH]1
Out: 76.4

In: Also check Clc1ccc2c(Nc3ccc4sc(NCCN5CCCC5)nc4c3)ccnc2c1
Out: 426

In: What do we get for Clc1ccc2c(Nc3ccc4sc(NCCN5CCCCC5)nc4c3)ccnc2c1 ?
Out: 272

In: Same read-out for Clc1ccc2c(Nc3ccc4[nH]c(NCCN5CCCCC5)nc4c3)ccnc2c1 ?
Out: 1.15

Attention now turns to another entry.
In: Bench note: what selectivity ratio did CCNc1nc2cc(Nc3ccnc4cc(Cl)ccc34)ccc2[nH]1 show?
Out: 11.4

----------
system: L6; test: Cytotoxicity against rat L6 cells after 72 hrs by alamar blue assay; assay type: cell-based; settings: L6, 72 h
pIC50: −log10 of the molar value.
The label depends only on pIC50: yes if it is at least 5, no if it is smaller.

In: Please tell me: is the molecule Clc1ccc2c(Nc3ccc(NCCN4CCCC4)nc3)ccnc2c1 at or over 5 in terms of pIC50?
Out: no

In: Another molecule: Clc1ccc2c(Nc3ccc4sc(NCCN5CCCC5)nc4c3)ccnc2c1
Out: yes

In: And what about the molecule Clc1ccc2c(Nc3ccc4[nH]c(NCCN5CCCCC5)nc4c3)ccnc2c1 ?
Out: yes

----------
tested on: L6; assay: Cytotoxicity against rat L6 cells after 72 hrs by alamar blue assay; assay type: cell-based; details: L6, 72 h
pIC50: −log10 of the molar value.
The label depends only on pIC50: 1 if it is at least 5, -1 if it is smaller.

In: Please indicate if the recorded pIC50 for CC(C)(C)Nc1nc2cc(Nc3ccnc4cc(Cl)ccc34)ccc2s1 meets or exceeds 5.
Out: 1

In: Entry CCNc1nc2cc(Nc3ccnc4cc(Cl)ccc34)ccc2o1 please
Out: -1

In: Then what about the compound CCNc1nc2cc(Nc3ccnc4cc(Cl)ccc34)ccc2[nH]1 ?
Out: 1

In: Next up: Clc1ccc2c(Nc3ccc4sc(NCCN5CCOCC5)nc4c3)ccnc2c1
Out: 1

In: Repeat with CCN(CC)CCNc1nc2cc(Nc3ccnc4cc(Cl)ccc34)ccc2[nH]1
Out: -1

In: Same question, Clc1ccc2c(Nc3ccc4sc(NCCN5CCCCC5)nc4c3)ccnc2c1 this time
Out: 1

Now for a further compound.
In: Answer whether pIC50 of Clc1ccc2c(Nc3ccc(NCCN4CCOCC4)nc3)ccnc2c1 is greater than or equal to 5.
Out: -1

Data provenance is ChEMBL document CHEMBL2057124.
